biological target: DLG2_3, Q15700; assay: holdup assay; set-up: key: below the threshold = too weak to quantify, mostly under pKd 3.1 to 4; conditions: plain residues with an end cap or a label only (N-terminal biotin on a linker: ado-ado)
REPORTED PROPERTY: pKd

Below, 10 binders whose answers are already recorded.
>>> result("KAEEKPPSKV [SCN4B, Q8IWT1]")
"below the threshold"
>>> result("FLVTEFNVML [DFNB31, Q9P202]")
"below the threshold"
>>> result("PAALPESTHM [SLC9A3, P48764]")
"below the threshold"
>>> result("QLKSGRDSTV [TMEM178A, Q8NBL3]")
"below the threshold"
>>> result("FHSIKQSTAV [CRHR1, P34998]")
4.54
>>> result("PDSYHRRDFW [U2AF2, P26368]")
"below the threshold"
>>> result("VKQYADVEGF [HNRNPK, P61978]")
3.55
>>> result("SGDGKTSVWI [GJC1, P36383]")
3.83
>>> result("WAKEKQHTRL [SLC17A1, Q14916]")
"below the threshold"
>>> result("IKLETKKTKL [SLC15A2, Q16348]")
"below the threshold"

Count: 3. Required value per item: pKd.
1. DSEEELPTRL [GRK6, P43250]
2. LPPPESESKV [KCNJ9, Q92806]
3. RGKNRRQSIF [CDK18, Q07002]

1: below the threshold; 2: 3.7; 3: 4.11
